# TARGET: Edg2 receptor (Homo sapiens, UniProt Q92633)
# Construct: expressed in transfected cells; host or cells: Saccharomyces cerevisiae JEY5 + pJE15
# Sequence (Q92633 whole entry): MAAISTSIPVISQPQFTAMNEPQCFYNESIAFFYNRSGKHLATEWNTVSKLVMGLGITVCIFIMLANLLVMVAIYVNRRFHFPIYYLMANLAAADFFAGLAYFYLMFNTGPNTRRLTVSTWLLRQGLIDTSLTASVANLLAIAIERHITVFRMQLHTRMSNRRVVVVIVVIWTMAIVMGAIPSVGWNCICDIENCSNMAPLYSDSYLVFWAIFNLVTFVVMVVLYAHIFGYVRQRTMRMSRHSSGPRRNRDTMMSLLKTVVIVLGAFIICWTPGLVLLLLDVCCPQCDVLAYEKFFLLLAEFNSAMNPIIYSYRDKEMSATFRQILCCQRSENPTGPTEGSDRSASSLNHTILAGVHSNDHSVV
# EXPERIMENT_NOTES: FUS1::lacZ reporter assay in yeast expressing the Edg2 receptor
# Format: cell-based
# RUN_CONDITIONS: 200 μM LPA or LPA analog, 18:1 acyl LPA as 100%
MEASUREMENT_NAME: activation of FUS1::lacZ by 18:1 analogs (FIG. 4)

{"COMPOUND": "CCCCCCCC/C=C\\CCCCCCCC(=O)OCC(COP(=O)(OC)OC)OC (racemic)", "ASSAY_VALUE": "had less lacZ activity"}
{"COMPOUND": "CCCCCCCC/C=C\\CCCCCCCCOCCCOP(=O)(OC)OC [Compound 29, Dimethyl 3-oleyloxypropyl-1-phosphate]", "ASSAY_VALUE": "inactive"}
{"COMPOUND": "CCCCCCCC/C=C\\CCCCCCCCOCC(O)COP(=O)(O)O (racemic) [Compound 26, 3-O-Oleyl-rac-glycero-1-phosphate]", "ASSAY_VALUE": "inactive"}
{"COMPOUND": "CCCCCCCC/C=C\\CCCCCCCCOCC(COP(=O)(O)O)OC (racemic)", "ASSAY_VALUE": "inactive"}

Problem: Look at this compound and give its reported activation of FUS1::lacZ by 18:1 analogs (FIG. 4). CCCCCCCC/C=C\CCCCCCCC(=O)OCCCOP(=O)(OC)OC [Compound 11, Dimethyl 1-(3-propyl oleoate) phosphate]
Result: had less lacZ activity
